# System: HepG2
# ASSAY EXPLANATION: cytotoxicity call (relative viability < 0.9)
# RUN PARAMETERS: 10 µM
Hit rate of the full screen: of about 39,000 compounds, about 3,300 (8.5%) were called active. The full list was thinned out, with actives kept by preference.
Classes used: active, inactive

INSERT INTO assay_data (structure, assigned_category) VALUES
  ('C[C@@H]1CN([C@@H](C)CO)C(=O)c2cccc(NS(=O)(=O)c3ccc(Cl)cc3)c2O[C@H]1CN(C)C(=O)Nc1ccc(C(F)(F)F)cc1', 'inactive'),
  ('C[C@H]1CN([C@@H](C)CO)C(=O)c2cccc(NS(=O)(=O)c3ccc(F)cc3)c2O[C@@H]1CN(C)C(=O)Nc1ccc(C(F)(F)F)cc1', 'inactive'),
  ('Cc1noc(C)c1S(=O)(=O)N(C)C[C@H]1OCCCC[C@@H](C)Oc2ccc(NC(=O)Nc3ccc(C(F)(F)F)cc3)cc2C(=O)N([C@H](C)CO)C[C@@H]1C', 'active'),
  ('O=C(O)Cn1nnnc1-c1ccc(F)cc1', 'inactive'),
  ('Cc1noc(C)c1S(=O)(=O)N(C)C[C@H]1OCCCC[C@H](C)Oc2ccc(NC(=O)Nc3ccc(C(F)(F)F)cc3)cc2C(=O)N([C@@H](C)CO)C[C@@H]1C', 'active'),
  ('CN(C)C/C=C/C(=O)Nc1ccc(C(=O)Nc2cccc(Nc3ncc(Cl)c(-c4c[nH]c5ccccc45)n3)c2)cc1', 'active'),
  ('Cc1noc(C)c1S(=O)(=O)N(C)C[C@@H]1OCCCC[C@H](C)Oc2ccc(NC(=O)Nc3ccc(C(F)(F)F)cc3)cc2C(=O)N([C@H](C)CO)C[C@@H]1C', 'active'),
  ('O=C(CO)c1ccccc1', 'inactive'),
  ('C[C@H]1CN([C@@H](C)CO)C(=O)c2cccc(NS(=O)(=O)c3ccc(Cl)cc3)c2O[C@@H]1CN(C)C(=O)Nc1ccc(C(F)(F)F)cc1', 'inactive'),
  ('O=C(ON1C(=O)CCC1=O)c1ccccc1', 'inactive'),
  ('O=C(Cc1ccccn1)NCC[C@H]1CC[C@@H](NC(=O)CN2CCOCC2)[C@H](CO)O1', 'inactive'),
  ('O=C(OOC(=O)c1ccccc1)c1ccccc1', 'active'),
  ('COc1ccc(S(=O)(=O)N(C)C[C@@H]2Oc3ncc(C#Cc4ccccc4)cc3C(=O)N([C@H](C)CO)C[C@@H]2C)cc1', 'inactive'),
  ('C[C@@H]1CN([C@H](C)CO)C(=O)c2cc(NC(=O)Cc3ccccc3)ccc2O[C@H]1CN(C)Cc1ccc(Oc2ccccc2)cc1', 'active'),
  ('Cc1noc(C)c1S(=O)(=O)N(C)C[C@H]1OCCCC[C@H](C)Oc2ccc(NC(=O)Nc3ccc(C(F)(F)F)cc3)cc2C(=O)N([C@H](C)CO)C[C@H]1C', 'inactive'),
  ('C[C@@H]1CN([C@@H](C)CO)C(=O)c2cccc(NC(=O)Nc3ccc(C(F)(F)F)cc3)c2O[C@@H]1CN(C)S(=O)(=O)c1ccc(Cl)cc1', 'inactive'),
  ('Cc1noc(C)c1S(=O)(=O)N(C)C[C@H]1OCCCC[C@@H](C)Oc2ccc(NC(=O)Nc3ccc(C(F)(F)F)cc3)cc2C(=O)N([C@@H](C)CO)C[C@@H]1C', 'inactive'),
  ('C[C@H]1CN([C@@H](C)CO)C(=O)c2cc(NC(=O)Cc3ccccc3)ccc2O[C@H]1CN(C)Cc1ccc(Oc2ccccc2)cc1', 'inactive'),
  ('C[C@@H]1CN([C@H](C)CO)C(=O)c2cc(NC(=O)Cc3ccccc3)ccc2O[C@@H]1CN(C)Cc1ccc(Oc2ccccc2)cc1', 'inactive'),
  ('C[C@H]1CN([C@@H](C)CO)C(=O)c2cc(NC(=O)Cc3ccccc3)ccc2O[C@@H]1CN(C)Cc1ccc(Oc2ccccc2)cc1', 'active'),
  ('C[C@@H]1CN([C@H](C)CO)C(=O)c2cccc(NS(=O)(=O)c3ccc(Cl)cc3)c2O[C@H]1CN(C)C(=O)Nc1ccc(C(F)(F)F)cc1', 'inactive'),
  ('N[C@@H](COCc1ccccc1)C(=O)O', 'inactive'),
  ('Cc1noc(C)c1S(=O)(=O)N(C)C[C@H]1OCCCC[C@@H](C)Oc2ccc(NC(=O)Nc3ccc(C(F)(F)F)cc3)cc2C(=O)N([C@@H](C)CO)C[C@H]1C', 'inactive'),
  ('O=C(OCc1ccccc1)c1ccccc1', 'active'),
  ('O=C(OCc1ccccc1)c1cccnc1', 'active'),
  ('O=C(O)c1cccnc1', 'inactive'),
  ('Cc1noc(C)c1S(=O)(=O)N(C)C[C@@H]1OCCCC[C@@H](C)Oc2ccc(NC(=O)Nc3ccc(C(F)(F)F)cc3)cc2C(=O)N([C@H](C)CO)C[C@H]1C', 'inactive'),
  ('Cc1noc(C)c1S(=O)(=O)N(C)C[C@@H]1OCCCC[C@H](C)Oc2ccc(NC(=O)Nc3ccc(C(F)(F)F)cc3)cc2C(=O)N([C@H](C)CO)C[C@H]1C', 'inactive'),
  ('C[C@@H]1CN([C@@H](C)CO)S(=O)(=O)c2ccc(-c3ccncc3)cc2O[C@@H]1CN(C)S(=O)(=O)c1ccccc1F', 'inactive'),
  ('C[C@H](CO)N1C[C@H](C)[C@H](CN(C)Cc2ccc(Oc3ccccc3)cc2)Oc2ccc(NC(=O)Cc3ccccc3)cc2C1=O', 'inactive');
